- SYSTEM: Metabotropic glutamate receptor 8 (Rattus norvegicus) (UniProt P70579)
- Sequence (P70579 whole entry, looked up): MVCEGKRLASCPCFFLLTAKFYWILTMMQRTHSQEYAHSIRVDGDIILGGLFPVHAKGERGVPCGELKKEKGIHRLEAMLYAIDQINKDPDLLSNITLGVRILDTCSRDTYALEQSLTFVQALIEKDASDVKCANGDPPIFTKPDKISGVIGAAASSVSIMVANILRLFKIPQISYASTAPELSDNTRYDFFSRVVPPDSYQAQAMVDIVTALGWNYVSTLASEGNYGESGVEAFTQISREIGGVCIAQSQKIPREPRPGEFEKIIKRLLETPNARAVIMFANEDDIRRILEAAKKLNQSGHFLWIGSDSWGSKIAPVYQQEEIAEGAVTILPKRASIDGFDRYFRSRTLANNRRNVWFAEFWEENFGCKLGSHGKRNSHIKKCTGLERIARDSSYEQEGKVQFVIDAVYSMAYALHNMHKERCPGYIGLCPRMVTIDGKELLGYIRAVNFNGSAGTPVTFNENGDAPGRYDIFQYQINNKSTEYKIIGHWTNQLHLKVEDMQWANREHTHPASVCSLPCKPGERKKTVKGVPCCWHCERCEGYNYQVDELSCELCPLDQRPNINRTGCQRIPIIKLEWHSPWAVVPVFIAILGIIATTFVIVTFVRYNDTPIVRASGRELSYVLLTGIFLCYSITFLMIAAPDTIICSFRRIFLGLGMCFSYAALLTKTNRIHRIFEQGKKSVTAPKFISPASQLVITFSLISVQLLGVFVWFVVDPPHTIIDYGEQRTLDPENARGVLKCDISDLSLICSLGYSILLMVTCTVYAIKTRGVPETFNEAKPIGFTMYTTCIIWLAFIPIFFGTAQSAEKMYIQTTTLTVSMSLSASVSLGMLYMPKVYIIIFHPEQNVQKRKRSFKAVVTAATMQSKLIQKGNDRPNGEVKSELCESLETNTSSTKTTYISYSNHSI
- PROTOCOL DESCRIPTION: mGluR8 Gi/Go-coupled signaling modulation – cell-based, rat, thallium flux, HTS, primary screen (AID 488969)
- MEASUREMENT CONDITIONS: HEK293 rat mGluR8, GIRK (G protein-gated inwardly rectifying potassium channel) thallium flux, FluoZin2; at 10 µM; stronger effect = higher value; submaximal glutamate (EC20) added with thallium
The full ranking holds about 110,000 compounds; the median of “z-score” is about -0.1, and the highest 2% start at about 2. Many of the other results were omitted from the sample, so the highest values are more common in it than they were.
REPORTED ENDPOINT: z-score

In [3]: df
Out[3]:
                                    compound  assay_value
 0  Cc1sc(NC(=O)c2cc(-c3ccc(Cl)cc3)nc3ccccc23)c(C(N)=O)c1C       -0.126
 1   COc1cc2[nH]c(=S)n(Cc3ccco3)c(=O)c2cc1OC       -0.209
 2              Nc1cc(=O)[nH]c(=O)n1Cc1ccco1        0.299
 3                O=c1[nH]c2cccnc2n1Cc1ccco1         0.26
 4    O=C(CSc1ccc(-c2ccc(F)cc2)nn1)NCc1ccco1       -0.746
 5               CCOC(=O)Nc1sc2c(c1C#N)CCCC2        0.504
 6             Cn1ccc(C(=O)N2CCCc3ccccc32)n1      -0.0997
 7  CCOC(=O)N1CCN(C(=O)c2ccc3c(=O)n(Cc4ccc(OC)cc4)c(=S)[nH]c3c2)CC1       -0.232
 8  CCOC(=O)c1c(NC(=O)C2=C(C)NC(=S)NC2c2ccc(F)cc2F)sc(C)c1C (centres undefined)        0.556
 9  CCOc1cc(CNCc2ccccn2)ccc1OCC(=O)NC1CCCCC1       -0.535
10  CCn1c(SCc2ccc([N+](=O)[O-])cc2)nnc1C(C)NC(=O)c1ccc(C)cc1 (centres undefined)       -0.256
11  COc1ccc(OC)c(NC(=O)C2CC(=O)n3ncnc3N2)c1 (centres undefined)       -0.244
12                CCCCN=Cc1sc2ccc(OCC)cc2c1O       -0.188
13  CC(C)OP(=O)(OC(C)C)C1(O)C(=O)Nc2ccccc21 (centres undefined)      -0.0437
